Target: Acetylcholinesterase (Homo sapiens)
Test: Acetylcholinesterase (AChE) small molecule antagonists: colormetric cell-based qHTS assay (AID 1347395); further: nearly all actives have a fitted effect of over 30% in size
Conditions: SH-SY5Y cells AChE activity, colorimetric (Ellman); series mostly up to 115 µM
Text: National Center for Advancing Translational Sciences [NCATS] Division of Preclinical Innovation [DPI] U.S. Environmental Protection Agency [EPA] National Institutes of Environmental Health Sciences [NIEHS] National Toxicology Program [NTP] U.S. Food and Drug Administration [FDA] Acetylcholinesterase (AChE) is the primary cholinesterase in the body that hydrolyzes a key neurotransmitter, acetylcholine. Inhibition of AChE activity can lead to neurotoxicity. […]
Inconclusive results are not listed. The source made the active and inactive calls. The call rests on the fitted dose curve.

{"Compound": "CCCCSCCCC", "Target entity": "Acetylcholinesterase (Homo sapiens)", "activity, negative = inhibition": "inactive"}
{"Compound": "CO[C@@]1(NC(=O)CSCC#N)C(=O)N2C(C(=O)O)=C(CSc3nnnn3C)CS[C@@H]21", "Target entity": "Acetylcholinesterase (Homo sapiens)", "activity, negative = inhibition": "inactive"}
{"Compound": "CCC1(C)CC(=O)NC1=O (configuration not stated)", "Target entity": "Acetylcholinesterase (Homo sapiens)", "activity, negative = inhibition": "inactive"}
{"Compound": "O=C(O)c1ccccc1[N+](=O)[O-]", "Target entity": "Acetylcholinesterase (Homo sapiens)", "activity, negative = inhibition": "inactive"}
{"Compound": "c1ccc2c(c1)CCC2", "Target entity": "Acetylcholinesterase (Homo sapiens)", "activity, negative = inhibition": "inactive"}
{"Compound": "NC(=O)N(O)[C@@H]1COc2cc(OCc3ccccc3)ccc21", "Target entity": "Acetylcholinesterase (Homo sapiens)", "activity, negative = inhibition": "inactive"}
{"Compound": "CCCOc1ccccc1-c1nc2n[nH]nc2c(=O)[nH]1", "Target entity": "Acetylcholinesterase (Homo sapiens)", "activity, negative = inhibition": "inactive"}
{"Compound": "CC(=O)O[C@]1(C(C)=O)CC[C@H]2[C@@H]3C=C(Cl)C4=CC(=O)[C@@H]5C[C@@H]5[C@]4(C)[C@H]3CC[C@@]21C", "Target entity": "Acetylcholinesterase (Homo sapiens)", "activity, negative = inhibition": "inactive"}
{"Compound": "C=C(C)C1CCC(C)CC1O (configuration not stated)", "Target entity": "Acetylcholinesterase (Homo sapiens)", "activity, negative = inhibition": "inactive"}
{"Compound": "CCCCC(CC)COC(=O)CC(C(=O)OCC(CC)CCCC)S(=O)(=O)O (configuration not stated)", "Target entity": "Acetylcholinesterase (Homo sapiens)", "activity, negative = inhibition": "inactive"}
{"Compound": "COC(=O)C1=C(C)NC(C)=C(C(=O)OCC(C)C)C1c1ccccc1[N+](=O)[O-] (configuration not stated)", "Target entity": "Acetylcholinesterase (Homo sapiens)", "activity, negative = inhibition": "inactive"}
{"Compound": "CC1=NC(C)OC1C (configuration not stated)", "Target entity": "Acetylcholinesterase (Homo sapiens)", "activity, negative = inhibition": "inactive"}

----------
Experiment: qHTS assay to identify small molecule antagonists of the thyroid receptor (TR) signaling pathway (AID 743065); further: nearly all actives have a fitted effect of over 55% in size
Details: GH3.TRE-Luc, T3-stimulated luciferase inhibition, 23.5 h; series mostly up to 70.3 µM
Results filed as inconclusive are left out. Calls of active or inactive are those of the source. The call rests on the fitted dose curve; in most records, active means well fitted inhibition curve with a large enough effect in the repeat runs; inconclusive means weak or mixed curves; inactive means no such curve, though single readings can be large or run the other way.
Labels: active, inactive

{"Molecule": "NC1=NC(=O)N2CC12 (stereo not given)", "Discrete label": "inactive"}
{"Molecule": "NCC(O)c1cccc(O)c1 (stereo not given)", "Discrete label": "inactive"}
{"Molecule": "CCC/C=C/C=C/C(=O)O[C@H]1/C(=C/C(=O)OC)C[C@H]2C[C@H]([C@@H](C)O)OC(=O)C[C@H](O)C[C@@H]3C[C@H](OC(C)=O)C(C)(C)[C@](O)(C[C@@H]4C/C(=C/C(=O)OC)C[C@H](/C=C/C(C)(C)[C@]1(O)O2)O4)O3", "Discrete label": "active"}
{"Molecule": "Cc1nnc2n1-c1sc(Br)cc1C(c1ccccc1Cl)=NC2", "Discrete label": "active"}
{"Molecule": "Cc1ccccc1-n1c(CF)nc2ccc(N)cc2c1=O", "Discrete label": "inactive"}
